Target: T1, CRF2R
T1 sequence (Q13324 whole entry, species assumed, looked up): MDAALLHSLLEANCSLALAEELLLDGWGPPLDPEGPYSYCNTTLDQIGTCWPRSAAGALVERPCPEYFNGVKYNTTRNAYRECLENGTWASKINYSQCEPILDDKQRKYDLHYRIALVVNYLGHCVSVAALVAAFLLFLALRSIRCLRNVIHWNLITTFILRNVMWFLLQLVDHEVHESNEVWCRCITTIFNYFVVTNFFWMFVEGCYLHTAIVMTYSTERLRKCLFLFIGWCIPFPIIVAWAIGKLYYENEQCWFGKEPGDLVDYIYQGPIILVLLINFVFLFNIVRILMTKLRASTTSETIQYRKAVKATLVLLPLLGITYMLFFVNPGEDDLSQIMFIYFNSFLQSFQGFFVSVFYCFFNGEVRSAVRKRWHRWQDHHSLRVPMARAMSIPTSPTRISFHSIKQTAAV
Assay: cell-based or functional assay
Ends that are not written are not given here.
readout label: CRF2R EC50

// CRF2R EC50 lookup, binder = ZGPPISIDLPTKLLRKMIEIEKQEKEKQQAANNRLLLDTI (C-terminal amide) [SEQ ID NO 45] , result: > 100 nM

GET /value?item= DNPSLSIDLPTYLLRTLLELARTQSQRERAEQNAIIFASV-NH2 [SEQ ID NO 173] &field=CRF2R EC50 returns 100 nM

Record ZGPPISIDLPTNLLRKMIEIEKQEKEKQQAANNRLLLDTI (C-terminal amide) [SEQ ID NO 59] . Reported CRF2R EC50: > 100 nM
